- method.notes: Primary qHTS for delayed death inhibitors of the malarial parasite plastid, 96 hour incubation
- condition.details: P. falciparum luciferase reporter growth; series mostly up to 28.7 µM
The campaign covered roughly 320,000 compounds. About 22,000 (6.9%) were called active. About 27% were inconclusive and are not listed. Calls come from the whole dose curve; as a rule, active = well fitted inhibition curve with a large enough effect; inconclusive = small, poorly fitted or top-dose-only effect, or another doubt; inactive = no such curve, though single readings can be large or run the other way. For the sample, actives were picked, then their nearest neighbours and some compounds at random.
Valid outcomes are listed here; reply with one: yes (1) for active, no (0) for inactive

*Q* How was Cc1ccc(C(=O)NCCc2nnc(SCC(=O)Nc3cccc(C(=O)O)c3)n2C)cc1 classified in this test?
*A* no (0)

*Q* What do you have for COc1ccc(C2=NN(C(=O)c3ccccc3C(=O)O)C(c3ccccc3O)C2)cc1 (stereo not given) ?
*A* no (0)

*Q* What do you have for CCOc1ccc2nc(Cl)c(C3CC(c4ccccc4)=NN3C(=O)c3cccs3)cc2c1 (stereo not given) ?
*A* yes (1)

*Q* What do you have for Cc1cc(Cl)nc(NC(=O)Nc2cccc(Cl)c2)n1 ?
*A* no (0)

*Q* What do you have for CN(CC#CCC(c1ccccc1)c1ccccc1)C(C)(C)C ?
*A* yes (1)

*Q* What do you have for COc1cc(OC)c(N2CC(C(=O)Nc3cc(Cl)ccc3N3CCOCC3)CC2=O)cc1Cl (stereo not given) ?
*A* yes (1)

*Q* What do you have for Cc1ccc(N2CC(C(=O)Nc3cc(Cl)ccc3-n3cncn3)CC2=O)cc1 (stereo not given) ?
*A* no (0)

*Q* What do you have for O=C(NCCCn1ccnc1)/C(=C\c1ccccc1F)NC(=O)c1ccccc1 ?
*A* no (0)

*Q* What do you have for Cc1cc(NC(=O)CCC(=O)N(Cc2ccccc2)C(C(=O)NC2CCCC2)c2ccc(C)o2)no1 (stereo not given) ?
*A* no (0)

*Q* What do you have for O=[N+]([O-])c1ccc2c(c1)C(O)n1nc(-c3ccccc3)nc1S2 (stereo not given) ?
*A* no (0)

---

- method.notes: Primary qHTS for delayed death inhibitors of the malarial parasite plastid, 96 hour incubation
- condition.details: P. falciparum luciferase reporter growth; series mostly up to 28.7 µM
Out of some 320,000 compounds screened, about 22,000 (6.9%) were called active. Roughly 27% stayed inconclusive and do not appear here. The call rests on the fitted dose curve; in most records, active means well fitted inhibition curve with a large enough effect; inconclusive means small, poorly fitted or top-dose-only effect, or another doubt; inactive means no such curve, though single readings can be large or run the other way. This excerpt belongs to a sample that is enriched for actives.
Valid outcomes are listed here; reply with one: Yes (active), No (inactive)

*Q* How was O=C(Cc1nc2ccccc2[nH]c1=O)c1ccc(Cl)cc1 classified in this test?
*A* No

*Q* What do you have for Fc1cnc(N2CCOCC2)nc1NCc1ccccc1 ?
*A* Yes

*Q* What do you have for Cn1cc(/C=C/C(=O)N2CCCC(C(=O)c3ccc(C(F)(F)F)cc3)C2)cn1 (configuration not stated) ?
*A* Yes

*Q* What do you have for CC(C)c1cc(CN2CCOCC2)cc(C(C)C)c1O ?
*A* Yes

*Q* What do you have for Cc1cccc(NC(=O)CCn2c(=O)oc3ccccc32)c1 ?
*A* No

*Q* What do you have for CC(CN1CCOCC1)c1ccccc1 (configuration not stated) ?
*A* No

*Q* What do you have for Cc1cc(Cl)ccc1OCCCC(=O)NCc1ccccn1 ?
*A* No

*Q* What do you have for O=C(/C(=C/c1cccc(Cl)c1)c1nc2ccccc2[nH]1)c1ccccc1 ?
*A* Yes

*Q* What do you have for Cn1cc(CCC(=O)N2CCCC(C(=O)c3ccc(C(C)(C)C)cc3)C2)cn1 (configuration not stated) ?
*A* No

*Q* What do you have for O=C(c1cccnc1NCc1ccccc1)N1CCOCC1 ?
*A* No

*Q* What do you have for CCc1cccc(C)c1NS(=O)(=O)c1c(C)nc2sccn2c1=O ?
*A* No

*Q* What do you have for O=C(CCc1nc2ccccc2c(=O)[nH]1)OCC(=O)c1cccc(Cl)c1 ?
*A* No
